test system: HL-60; assay: NCI tumour cell line growth inhibition, 48 h
The source made the active and inactive calls. Cut-off read from the data, not from the text of the source: active = GI50 up to about 1.1 µM and inactive = higher.
Measured GI50, listed per entry for reference.

compound="C/C(=C\\c1ccccc1)C(O)C(=O)c1nc2ccc(Cl)cc2nc1O (stereo not given)" value_observed="27 µM (inactive)"
compound=CC(C)(C)OC(=O)NCC(=O)N(CCc1ccc(Cl)c(Cl)c1)CCN1CCCC1 value_observed="12.1 µM (inactive)"
compound=COc1cc2ccc3c4c(OC)cc(OC)c(OC)c4c([O-])[n+](C)c3c2cc1OC value_observed="1.33 µM (inactive)"
compound="OCC1OC(n2nc(-c3ccccc3)nc2-c2cnccn2)C(O)C(O)C1O (stereo not given)" value_observed="> 100 µM (inactive)"

Could you now consider this next compound?
-- ask # GI50 lookup, item O=C(O)c1cc2cc(OCc3ccccc3)ccc2[nH]1
-- reply > 100 µM (inactive)

* * *

Below, each entry is listed with its recorded GI50.
test system: A549; experiment: NCI tumour cell line growth inhibition, 48 h
Calls of active or inactive are those of the source. Rule as the data show it: active = GI50 up to about 1.1 µM and inactive = higher. Where a SMILES comes first, the peptide text is derived from it. The star is where a group is joined. Cbz = O=C(OCc1ccccc1)*; NHNH2 = NN*

Guide cases for GI50, answers given:
compound=Brc1cccc(C2(CCCC3(c4cccc(Br)n4)OCCO3)OCCO2)n1 value_observed="> 100 µM (inactive)"
compound=Cc1occc1/C(S)=N\c1ccc(Cl)c(COC(C)(C)C)c1 value_observed="19.3 µM (inactive)"

-- ask Need GI50 of CCOC(=O)CCC(NC(=O)OCc1ccccc1)C(=O)NC(CCC(=O)OCC)C(=O)NN (centres undefined) (Cbz-Glu(OEt)-Glu(OEt)-NHNH2; configuration not given here) , thanks.
-- reply > 100 µM (inactive)

-- ask Input OC1CN2CCS[C@H]2C(O)C1O (some centres undefined)
-- reply > 100 µM (inactive)

* * *

test system: 786-0; test: NCI tumour cell line growth inhibition, 48 h
Active and inactive are the calls of the source. Cut-off read from the data, not from the text of the source: active = GI50 up to about 1.1 µM and inactive = higher.
Result category, one only: 1 (active), -1 (inactive)

As a guide, the following entries are already answered.
molecule=Cn1c(=O)c2c(ncn2CCSS(=O)(=O)O)n(C)c1=O class_assignment=-1
molecule=COc1cc(/C=N/N=C(\N)NO)cc(OC)c1OC class_assignment=-1
molecule=COC(=O)C1=Cc2cc(OC)c(O)cc2[C@@H](c2ccc(O)c(OC)c2)[C@@H]1C(=O)OC class_assignment=-1
molecule=NC(=O)N/N=C(\C(=O)C(=O)Nc1ccc(Cl)c(C(F)(F)F)c1)c1nc2ccc(C(=O)c3ccccc3)cc2nc1O class_assignment=-1
molecule=Cc1cc(O)c(C(C)C)cc1C(=S)Nc1ccc(Cl)cc1 class_assignment=-1
molecule=NS(=O)(=O)c1cc(C(=O)O)c(Cl)c([N+](=O)[O-])c1Cl class_assignment=-1
molecule=Cc1ccc(-n2cc(-c3ccc(Cl)cc3)c3c(=N)n(N)cnc32)cc1 class_assignment=-1
molecule=COc1cccc(-c2cc(=O)c3cc(N4CCCCC4)ccc3[nH]2)c1 class_assignment=1

-- ask What was the test verdict on COC(OC)c1cccc2c1C(=O)CCC1(O)c3ccccc3C1C2 (centres undefined) ?
-- reply -1

* * *

Catalogue of GI50 values
tested on: OVCAR-3; test: NCI tumour cell line growth inhibition, 48 h
The source made the active and inactive calls. Cut-off read from the data, not from the text of the source: active = GI50 up to about 1.1 µM and inactive = higher.

molecule=O=C1CCCn2c(nc3ccccc32)N1 outcome_measure=GI50 value_observed="> 100 µM (inactive)"
molecule=OCCCN(CCc1ccc(Cl)c(Cl)c1)CCN1CCCC1 outcome_measure=GI50 value_observed="> 100 µM (inactive)"
molecule="O=C1NN=C2C=C(c3ccc(Cl)cc3)CC(c3cccc(Cl)c3)C12 (stereo unspecified)" outcome_measure=GI50 value_observed="29.5 µM (inactive)"
molecule="COc1ccc(C)cc1C1CCC(=O)O1 (stereo unspecified)" outcome_measure=GI50 value_observed="> 100 µM (inactive)"
molecule=O=c1c2cccnc2ncn1CCN1CCCC1 outcome_measure=GI50 value_observed="> 100 µM (inactive)"
molecule="CSC(=S)OC1C(CO[Si](C)(C)C(C)(C)C)OC2OC(C)(C)OC21 (stereo unspecified)" outcome_measure=GI50 value_observed="17 µM (inactive)"
molecule="C=C(CC[C@@H](C(=O)O)[C@H]1[C@H](O)C[C@@]2(C)C3=CC[C@@H](C(=C)C)[C@](C)(CCC(=O)O)C3=CC[C@]12C)C(C)C [PORICOIC ACID A]" outcome_measure=GI50 value_observed="19.1 µM (inactive)"
molecule=Cc1cc(NS(=O)(=O)c2ccc(NO)cc2)no1 outcome_measure=GI50 value_observed="> 100 µM (inactive)"

-- ask Tell me the measured GI50 of CSc1nc(-c2ccc(C)cc2)c(C#N)c(=O)[nH]1 , please.
-- reply > 100 µM (inactive)

-- ask Query CCCCCCCCCCCc1noc2c1C(=O)C(O)CC2 (stereo unspecified) next
-- reply 17.5 µM (inactive)

-- ask Continue with COP(=O)(OC)/C(=C\C1=CN(C(c2ccccc2)(c2ccccc2)c2ccccc2)CN1)NC=O
-- reply 16.1 µM (inactive)
